Listing of entries alongside the reported IC50.
Target: IL-17A/F (Homo sapiens, UniProt Q16552+Q96PD4)
Sequence (Q16552 24-155): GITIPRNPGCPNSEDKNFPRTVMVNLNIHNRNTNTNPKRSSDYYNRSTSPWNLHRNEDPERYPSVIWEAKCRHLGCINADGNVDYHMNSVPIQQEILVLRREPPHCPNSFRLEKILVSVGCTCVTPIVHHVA
Sequence (Q96PD4 31-163): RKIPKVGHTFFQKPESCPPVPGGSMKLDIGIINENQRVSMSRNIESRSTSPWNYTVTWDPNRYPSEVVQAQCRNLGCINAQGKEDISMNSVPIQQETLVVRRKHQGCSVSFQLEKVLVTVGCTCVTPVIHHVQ
Assay: IL-17A/F HEK-Blue Cell Assay
Type: cell-based
Details: HEK-Blue IL-17 reporter cells, IL-17A/F stimulation, 20 hours, SEAP readout; read-out: IL17AF HEK Blue pIC50 (converted)

Worked cases, answers included:
CCn1nccc1C(=O)N[C@H](C(=O)Nc1ccc([C@H](C)[C@@H](NC(=O)COC)C(=O)N2CCN(C)CC2)cc1F)C(C1CC1)C1CC1
10 to 100 nM
CCC(OC)C(=O)N[C@@H](C(=O)N1CCN(C)[C@H](C)C1)[C@@H](C)c1ccc(NC(=O)[C@@H](NC(=O)c2ccnn2CC)C(C2CC2)C2CC2)c(F)c1 (single isomer, unassigned) [Compound 335]
100 to 10000 nM
CCOC(C)C(=O)N[C@@H](C(=O)N1CCN(C)[C@H](C)C1)[C@@H](C)c1ccc(NC(=O)[C@@H](NC(=O)c2ccnn2CC)C(C2CC2)C2CC2)c(F)c1 (single isomer, unassigned) [Compound 320]
100 to 10000 nM
CCn1nccc1C(=O)N[C@H](C(=O)Nc1ccc([C@H](C)[C@@H](NC(=O)C(C)C(F)(F)F)C(=O)N2CCN(C)CC2)cc1F)C(C1CC1)C1CC1 (single isomer, unassigned)
100 to 10000 nM
CCOC(=O)N[C@@H](CF)C(=O)N[C@@H](C(=O)N1CCN(C)[C@H](C)C1)[C@@H](C)c1ccc(NC(=O)[C@@H](NC(=O)c2nonc2C)C(C2CC2)C2CC2)c(F)c1
10 to 100 nM
COCC(=O)N[C@@H](C(=O)N1CCN(C)[C@H](C)C1)[C@@H](C)c1ccc(NC(=O)[C@@H](NC(=O)c2nonc2C)C(C2CC2)C2CC2)c(F)c1
100 to 10000 nM

The observed IC50 for CCn1nccc1C(=O)N[C@H](C(=O)Nc1ccc(C(C(NC(=O)[C@H](C)OC)C(=O)N2CCN(C)[C@H](C)C2)C(F)(F)F)cc1F)C(C1CC1)C1CC1 (single isomer, unassigned) [Compound 353] when tested with IL-17A/F (Homo sapiens, UniProt Q16552+Q96PD4) stands at 10 to 100 nM

The observed IC50 for `CCn1nccc1C(=O)N[C@H](C(=O)Nc1ccc([C@H](C)[C@@H](NC(=O)[C@H](C)OC)C(=O)N2CCN(C)CC2)cc1F)C(C1CC1)C1CC1` when tested with IL-17A/F (Homo sapiens, UniProt Q16552+Q96PD4) stands at 10 to 100 nM

The observed IC50 for `CCC(=O)N[C@@H](C(=O)N1CCN(C)CC1)[C@@H](C)c1ccc(NC(=O)[C@@H](NC(=O)c2ccnn2CCF)C(C2CC2)C2CC2)c(F)c1` when tested with IL-17A/F (Homo sapiens, UniProt Q16552+Q96PD4) stands at 10 to 100 nM

The observed IC50 for `CO[C@@H](C)C(=O)N[C@@H](C(=O)N1CCN(C)CC1)[C@@H](C)c1ccc(NC(=O)[C@@H](NC(=O)c2nonc2C)C(C2CC2)C2CC2)c(F)c1` when tested with IL-17A/F (Homo sapiens, UniProt Q16552+Q96PD4) stands at 100 to 10000 nM
